- Tested on: E. faecalis ATCC29212
- test_protocol: MIC, microdilution broth method (NCCLS)
- Format: cell-based
- setup_conditions: C: E. faecalis ATCC29212, 35° C., 16-20 hours

| compound | MIC / µg/mL |
| --- | --- |
| CC[C@H]1OC(=O)[C@H](C)C(=O)[C@H](C)[C@@H](O[C@@H]2O[C@H](C)C[C@H](N(C)C)[C@H]2O)[C@](C)(OC(=O)NC/C=C/c2ccc(Oc3ncccn3)cc2)C[C@@H](C)C(=O)[C@H](C)[C@H]2NC(=O)O[C@@]21C [Compound 86] | 0.12 |
| CC[C@H]1OC(=O)[C@H](C)C(=O)[C@H](C)[C@@H](O[C@@H]2O[C@H](C)C[C@H](N(C)C)[C@H]2O)[C@](C)(OC(=O)NCc2ccc(-c3nccc(OC)n3)cc2)C[C@@H](C)C(=O)[C@H](C)[C@H]2NC(=O)O[C@@]21C [Compound 70] | 0.12 |
| CC[C@H]1OC(=O)[C@H](C)C(=O)[C@H](C)[C@@H](O[C@@H]2O[C@H](C)C[C@H](N(C)C)[C@H]2O)[C@](C)(OC(=O)NCCNCc2cccnc2)C[C@@H](C)C(=O)[C@H](C)[C@H]2NC(=O)O[C@@]21C [Compound 116] | 1 |
| CC[C@H]1OC(=O)[C@H](C)C(=O)[C@H](C)[C@@H](O[C@@H]2O[C@H](C)C[C@H](N(C)C)[C@H]2O)[C@](C)(OC(=O)NCc2ccc(-n3cc(C)cn3)cc2)C[C@@H](C)C(=O)[C@H](C)[C@H]2NC(=O)O[C@@]21C [Compound 64] | 0.12 |
| CCC1OC(=O)C(C)(F)C(=O)C(C)C(OC2OC(C)CC(N(C)C)C2O)C(C)(OC(=O)NCC=Cc2ccc(-c3ccncn3)cc2)CC(C)C(=O)C(C)C2NC(=O)OC12C (centres unmarked) [Compound 100] | 0.12 |
| CC[C@H]1OC(=O)[C@H](C)C(=O)[C@H](C)[C@@H](O[C@@H]2O[C@H](C)C[C@H](N(C)C)[C@H]2O)[C@](C)(OC(=O)N2CCC(c3ccccc3)CC2)C[C@@H](C)C(=O)[C@H](C)[C@H]2NC(=O)O[C@@]21C [Compound 137] | 1 |
| CC[C@H]1OC(=O)[C@H](C)C(=O)[C@H](C)[C@@H](O[C@@H]2O[C@H](C)C[C@H](N(C)C)[C@H]2O)[C@](C)(OC(=O)NCc2ccccc2)C[C@@H](C)C(=O)[C@H](C)[C@H]2NC(=O)O[C@@]21C [Compound 1] | 0.12 |
| CCC1OC(=O)C(C)(F)C(=O)C(C)C(OC2OC(C)CC(N(C)C)C2O)C(C)(OC(=O)NCC=Cc2ccnc(Br)c2)CC(C)C(=NO)C(C)C2NC(=O)OC12C (centres unmarked) [Compound 130] | 0.12 |
| CCC1OC(=O)C(C)(F)C(=O)C(C)C(OC2OC(C)CC(N(C)C)C2O)C(C)(OC(=O)NCC=Cc2ccc(-c3ncccn3)cc2)CC(C)C(=O)C(C)C2NC(=O)OC12C (centres unmarked) [Compound 75] | 0.12 |
| CC[C@H]1OC(=O)[C@H](C)C(=O)[C@H](C)[C@@H](O[C@@H]2O[C@H](C)C[C@H](N(C)C)[C@H]2O)[C@](C)(OC(=O)NC/C(C)=C/c2ccccc2)C[C@@H](C)C(=O)[C@H](C)[C@H]2NC(=O)O[C@@]21C [Compound 21] | 0.25 |
| CC[C@H]1OC(=O)[C@H](C)C(=O)[C@H](C)[C@@H](O[C@@H]2O[C@H](C)C[C@H](N(C)C)[C@H]2O)[C@](C)(OC(=O)NCCNCc2ccc(-c3ncccn3)cc2)C[C@@H](C)C(=O)[C@H](C)[C@H]2NC(=O)O[C@@]21C [Compound 115] | 0.5 |
| CC[C@H]1OC(=O)[C@H](C)C(=O)[C@H](C)[C@@H](O[C@@H]2O[C@H](C)C[C@H](N(C)C)[C@H]2O)[C@](C)(OC(=O)NCCCc2ccnc3ccccc23)C[C@@H](C)C(=O)[C@H](C)[C@H]2NC(=O)O[C@@]21C [Compound 25] | 0.06 |
| CC[C@H]1OC(=O)[C@H](C)C(=O)[C@H](C)[C@@H](O[C@@H]2O[C@H](C)C[C@H](N(C)C)[C@H]2O)[C@](C)(OC(=O)NCCNC(=O)c2ccc(-c3ccccc3)cc2)C[C@@H](C)C(=O)[C@H](C)[C@H]2NC(=O)O[C@@]21C [Compound 111] | 0.5 |
| CC[C@H]1OC(=O)[C@H](C)C(=O)[C@H](C)[C@@H](O[C@@H]2O[C@H](C)C[C@H](N(C)C)[C@H]2O)[C@](C)(OC(=O)NCCCc2cccnc2)C[C@@H](C)C(=O)[C@H](C)[C@H]2NC(=O)O[C@@]21C [Compound 12] | 0.12 |
| CC[C@H]1OC(=O)[C@H](C)C(=O)[C@H](C)[C@@H](O[C@@H]2O[C@H](C)C[C@H](N(C)C)[C@H]2O)[C@](C)(OC(=O)NCc2ccc(-c3ccncn3)cc2)C[C@@H](C)C(=O)[C@H](C)[C@H]2NC(=O)O[C@@]21C [Compound 79] | 0.06 |
| CCC1OC(=O)C(C)C(=O)C(C)C(OC2OC(C)CC(N(C)C)C2O)C(C)(OC(=O)NCC=Cc2ccc(-c3cccnn3)cc2)CC(C)C(=O)C(C)C2NC(=O)OC12C (centres unmarked) [Compound 96] | 0.12 |
| CC[C@H]1OC(=O)[C@H](C)C(=O)[C@H](C)[C@@H](O[C@@H]2O[C@H](C)C[C@H](N(C)C)[C@H]2O)[C@](C)(OC(=O)NC/C=C/c2ccc3ncccc3c2)C[C@@H](C)C(=O)[C@H](C)[C@H]2NC(=O)O[C@@]21C [Compound 38] | 0.03 |

* * *

- System: H. influenzae ATCC49247
- test_protocol: MIC, microdilution broth method (NCCLS)
- Type: cell-based
- setup_conditions: E: H. influenzae ATCC49247, 35° C., 16-20 hours
So basically: is MIC under 4 µg/mL? Then true (1). Not under? Then false (0).

| molecule | assigned_label |
| --- | --- |
| CC[C@H]1OC(=O)[C@H](C)C(=O)[C@H](C)[C@@H](O[C@@H]2O[C@H](C)C[C@H](N(C)C)[C@H]2O)[C@](C)(OC(=O)NCc2ccc(Oc3ncccn3)cc2)C[C@@H](C)C(=O)[C@H](C)[C@H]2NC(=O)O[C@@]21C | false (0) |
| CC[C@H]1OC(=O)[C@H](C)C(=O)[C@H](C)[C@@H](O[C@@H]2O[C@H](C)C[C@H](N(C)C)[C@H]2O)[C@](C)(OC(=O)NCCCc2ccncc2)C[C@@H](C)C(=O)[C@H](C)[C@H]2NC(=O)O[C@@]21C | true (1) |
| CCC1OC(=O)C(C)(F)C(=O)C(C)C(OC2OC(C)CC(N(C)C)C2O)C(C)(OC(=O)NCc2ccc(-c3ncccn3)cc2)CC(C)C(=NO)C(C)C2NC(=O)OC12C (centres unmarked) | false (0) |
| CC[C@H]1OC(=O)[C@H](C)C(=O)[C@H](C)[C@@H](O[C@@H]2O[C@H](C)C[C@H](N(C)C)[C@H]2O)[C@](C)(OC(=O)NCCCc2ccc(N(C)C)cc2)C[C@@H](C)C(=O)[C@H](C)[C@H]2NC(=O)O[C@@]21C | false (0) |
| CC[C@H]1OC(=O)[C@H](C)C(=O)[C@H](C)[C@@H](O[C@@H]2O[C@H](C)C[C@H](N(C)C)[C@H]2O)[C@](C)(OC(=O)NCCNC(=O)c2cccnc2)C[C@@H](C)C(=O)[C@H](C)[C@H]2NC(=O)O[C@@]21C | false (0) |
| CC[C@H]1OC(=O)[C@H](C)C(=O)[C@H](C)[C@@H](O[C@@H]2O[C@H](C)C[C@H](N(C)C)[C@H]2O)[C@](C)(OC(=O)NC/C=C/c2ccc(-c3ccccn3)s2)C[C@@H](C)C(=O)[C@H](C)[C@H]2NC(=O)O[C@@]21C | true (1) |
| CC[C@H]1OC(=O)[C@H](C)C(=O)[C@H](C)[C@@H](O[C@@H]2O[C@H](C)C[C@H](N(C)C)[C@H]2O)[C@](C)(OC(=O)N2Cc3ccccc3C2)C[C@@H](C)C(=O)[C@H](C)[C@H]2NC(=O)O[C@@]21C | false (0) |
| CCC1OC(=O)C(C)(F)C(=O)C(C)C(OC2OC(C)CC(N(C)C)C2O)C(C)(OC(=O)NCC=Cc2ccccc2)CC(C)C(=NO)C(C)C2NC(=O)OC12C (centres unmarked) | true (1) |
| CCC1OC(=O)C(C)C(=NOC)C(C)C(OC2OC(C)CC(N(C)C)C2O)C(C)(OC(=O)NCC=Cc2ccc(-c3ncccn3)cc2)CC(C)C(=NOC)C(C)C2NC(=O)OC12C (centres unmarked) | false (0) |
